# method notes: hydrolysis of DP-AZT in mouse bone marrow cells
# Type: in vitro ADME
# measurement context: end of 4 hours of incubation, read-out: hydrolysis of the pro-drug
quantity measured: metabolised at 4 h, 500 µM

I am curious: what metabolised at 4 h, 500 µM value has been reported for "Cc1cn([C@H]2C[C@H](N=[N+]=[N-])[C@@H](COC(=O)C3=CN(C)C=CC3)O2)c(=O)[nH]c1=O" ?
50%

The measurements presented in this section are drawn from patent US5026688A.
